target: Androgen Receptor (Homo sapiens, UniProt P10275+P40337, T878A); construct: Compounds have been evaluated in this assay in LNCaP and/or VCaP cells utilizing similar protocols; endogenous in cells; host or cells: LNCaP cells; test: Androgen Receptor ELISA assay (PathScan AR ELISA) in LNCaP cells: AR degradation, Dmax and DC50; type: cell-based; conditions: highest percentage of Androgen Receptor degradation
Sequence (P10275 whole entry T878A): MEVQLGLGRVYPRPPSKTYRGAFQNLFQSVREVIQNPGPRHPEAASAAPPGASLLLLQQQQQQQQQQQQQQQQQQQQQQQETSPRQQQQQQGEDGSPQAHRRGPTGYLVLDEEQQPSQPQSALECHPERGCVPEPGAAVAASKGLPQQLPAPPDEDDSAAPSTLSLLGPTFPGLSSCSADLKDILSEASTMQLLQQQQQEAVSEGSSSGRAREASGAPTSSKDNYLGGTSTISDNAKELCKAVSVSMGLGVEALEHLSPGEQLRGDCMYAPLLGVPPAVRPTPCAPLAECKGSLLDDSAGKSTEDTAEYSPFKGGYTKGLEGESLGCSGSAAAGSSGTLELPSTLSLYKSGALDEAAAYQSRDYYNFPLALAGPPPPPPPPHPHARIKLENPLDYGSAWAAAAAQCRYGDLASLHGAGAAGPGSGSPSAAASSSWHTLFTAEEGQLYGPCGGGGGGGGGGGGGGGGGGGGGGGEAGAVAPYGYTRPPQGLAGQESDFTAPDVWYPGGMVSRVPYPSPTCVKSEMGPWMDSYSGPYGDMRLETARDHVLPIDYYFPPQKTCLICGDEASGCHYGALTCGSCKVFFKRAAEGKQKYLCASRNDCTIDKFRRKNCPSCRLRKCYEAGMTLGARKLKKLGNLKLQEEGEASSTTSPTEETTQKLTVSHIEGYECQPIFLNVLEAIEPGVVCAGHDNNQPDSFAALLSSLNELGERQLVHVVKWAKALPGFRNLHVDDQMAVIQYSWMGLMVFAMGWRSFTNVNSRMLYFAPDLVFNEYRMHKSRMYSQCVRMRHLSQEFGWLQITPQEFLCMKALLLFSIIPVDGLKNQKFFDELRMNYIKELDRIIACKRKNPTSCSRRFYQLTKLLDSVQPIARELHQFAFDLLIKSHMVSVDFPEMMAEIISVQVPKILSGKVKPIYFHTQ
Sequence (P40337 whole entry): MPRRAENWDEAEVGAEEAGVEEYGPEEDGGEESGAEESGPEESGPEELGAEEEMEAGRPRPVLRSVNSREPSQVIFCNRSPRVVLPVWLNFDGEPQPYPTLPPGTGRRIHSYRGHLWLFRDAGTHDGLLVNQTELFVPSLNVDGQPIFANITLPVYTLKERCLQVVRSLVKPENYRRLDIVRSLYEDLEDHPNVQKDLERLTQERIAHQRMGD
Sequence (Q15369 whole entry partner): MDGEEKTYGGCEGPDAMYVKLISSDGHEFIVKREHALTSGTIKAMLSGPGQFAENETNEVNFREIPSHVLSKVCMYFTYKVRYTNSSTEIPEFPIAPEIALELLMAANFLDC
Sequence (Q15370 whole entry partner): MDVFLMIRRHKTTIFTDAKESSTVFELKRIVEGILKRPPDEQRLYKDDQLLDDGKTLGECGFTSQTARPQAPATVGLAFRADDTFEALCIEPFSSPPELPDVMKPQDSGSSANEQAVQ
Endpoint name: Dmax

Mol	Endpoint name	Result value
CCC(=O)N[C@H](C(=O)N1C[C@H](O)C[C@H]1C(=O)NCc1ccc(-c2scnc2C)cc1OCCOCCOCCOc1ccc(N2C(=S)N(c3ccc(C#N)c(C(F)(F)F)c3)C(=O)C2(C)C)cc1)C(C)(C)C	Dmax	51 to 70%

Please look up its Dmax: Cc1ncsc1-c1ccc(CNC(=O)[C@@H]2C[C@@H](O)CN2C(=O)[C@H](C(C)C)N2Cc3ccccc3C2=O)c(OCCOCCOCCCOCCOCCOc2ccc(N3C(=S)N(c4ccc(C#N)c(C(F)(F)F)c4)C(=O)C3(C)C)cc2)c1
51 to 70%
